- Tested on: Wolbachia pipientis
- EXPERIMENT: Anti-Wolbachia Cell-Based Screen
- Format: functional
- Parameters: scale not given: in the data most compounds retested in dose-response had high values
- CONDITION_LABEL: 5 µM
Hit rate of the full screen: of about 48,000 compounds, about 13,000 (27%) showed an effect of 50% or more. The list shows a part of the results.
Use 90% as the dividing line for Percent Effect, with the line itself on the rule met side and lower values as rule not met.

Examples with answers:
CC(=O)N1CCC(NC(=O)Cc2csc(C(C)(C)C)n2)CC1; rule not met
Cc1ccc(C)c(CC(=O)NC2CCCS(=O)(=O)C2)c1 (stereo unspecified); rule not met
Cc1ccc(C)c(CC(=O)NC2CCS(=O)(=O)CC2)c1; rule not met

[ask] // inclusive: Percent Effect at least 90%? input: "CC(=O)N1CCC(NC(=O)CN2CCCc3c(F)ccc(C)c32)CC1"
[reply] rule met

[ask] // inclusive: Percent Effect at least 90%? input: "CC(=O)N1CCC(NC(=O)CN2CCCc3c(C)ccc(F)c32)CC1"
[reply] rule met
